// values below are reported IC50
- Measured On: PRMT5 (Homo sapiens)
- Construct: purchased Viva (custom protein)
- Experiment Description: PRMT5 biochemical IC50 assay with no cofactor
- Assay Conditions: PRMT5, no cofactor; read-out: No Cofactor/ rel IC50
Endpoint: IC50

Compound	Endpoint	Obs Value
C[C@H]1CC[C@H](c2ccc3sc(C4CCN(C)CC4)nc3c2)N(C(=O)C(=O)Nc2cnc(N)c([C@H]3CCOC3)c2)C1 (single isomer, unassigned) [Compound 1312]	IC50	< 50 nM
CCc1cc(NC(=O)C(=O)N2C[C@@H](C)CC[C@@H]2c2ccc(N3CCN(C)CC3)c(C)c2)cnc1N [Compound 1390]	IC50	50 to 500 nM
Cc1cc(NC(=O)C(=O)N2C[C@H]3CC[C@H](C3)[C@H]2c2ccccc2)cnc1N (single isomer, unassigned) [Compound 65]	IC50	50 to 500 nM
CCc1cc(NC(=O)C(=O)N2C[C@@H](C)CC[C@@H]2c2cccc([C@H]3CCCN(C)C3)c2)cnc1N (single isomer, unassigned) [Compound 1285]	IC50	< 50 nM
Cc1ncc(NC(=O)C(=O)N2C[C@@H](C)CC[C@@H]2c2ccc3sc(C4CCN(C)CC4)nc3c2)cc1C1COC1 [Compound 1309]	IC50	< 50 nM
Cc1cc(NC(=O)C(=O)N2CCCCC2c2cccnc2)cnc1N (centres unmarked) [Compound 38]	IC50	50 to 500 nM
Cc1cncc(NC(=O)C(=O)N2C[C@H](C)CC[C@H]2c2cccc(F)c2)c1 (racemic) [Compound 70]	IC50	> 500 nM
CCc1cc(NC(=O)C(=O)N2C[C@@H](C)CC[C@@H]2c2ccc(N3CCC(CN4CCCC4)CC3)cc2)cnc1N [Compound 1276]	IC50	< 50 nM
CCc1cc(NC(=O)C(=O)N2C[C@@H](C)CC[C@@H]2c2ccc(N3CCN(C)[C@H](C)C3)nc2)cnc1N (single isomer, unassigned) [Compound 1263]	IC50	> 500 nM
Cc1cnc(N)c(NC(=O)C(=O)N2CCCCC2c2ccccc2)c1 (centres unmarked) [Compound 160]	IC50	> 500 nM
NC(=O)c1cncc(NC(=O)C(=O)N2CCCCC2C2CCCC2O)c1 (centres unmarked) [Compound 169]	IC50	> 500 nM
C[C@@H]1CC[C@@H](C2CCCCC2)N(C(=O)C(=O)Nc2cncc(C(N)=O)c2)C1 (single isomer, unassigned) [Compound 130]	IC50	> 500 nM
Cc1cc(NC(=O)C(=O)N2[C@@H](C)CCC[C@H]2c2ccccc2)cnc1N (racemic) [Compound 112]	IC50	50 to 500 nM
Cc1cc(NC(=O)C(=O)N2C[C@@H](C)CC[C@@H]2c2cc3cn[nH]c3s2)cnc1N (single isomer, unassigned) [Compound 1392]	IC50	50 to 500 nM

====

- Measured On: PRMT5 (Homo sapiens, UniProt O14744)
- Construct: purchased Viva (custom protein)
- Sequence (O14744 whole entry): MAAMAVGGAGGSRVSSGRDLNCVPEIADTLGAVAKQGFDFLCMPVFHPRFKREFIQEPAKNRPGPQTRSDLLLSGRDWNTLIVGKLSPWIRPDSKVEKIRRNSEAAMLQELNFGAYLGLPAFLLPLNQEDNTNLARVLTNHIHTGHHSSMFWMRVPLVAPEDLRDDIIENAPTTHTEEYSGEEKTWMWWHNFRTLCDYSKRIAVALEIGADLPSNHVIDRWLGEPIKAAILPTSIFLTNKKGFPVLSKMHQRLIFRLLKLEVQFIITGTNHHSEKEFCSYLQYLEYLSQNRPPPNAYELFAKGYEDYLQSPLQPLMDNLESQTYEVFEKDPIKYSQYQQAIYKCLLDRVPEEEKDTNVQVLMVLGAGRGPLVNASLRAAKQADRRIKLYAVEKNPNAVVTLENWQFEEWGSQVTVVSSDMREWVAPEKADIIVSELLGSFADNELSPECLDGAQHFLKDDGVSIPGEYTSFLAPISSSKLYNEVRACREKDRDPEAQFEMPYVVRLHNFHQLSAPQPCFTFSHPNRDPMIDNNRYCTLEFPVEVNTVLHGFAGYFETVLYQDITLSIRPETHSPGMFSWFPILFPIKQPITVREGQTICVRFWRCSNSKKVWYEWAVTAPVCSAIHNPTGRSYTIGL
- Sequence (Q9BQA1 whole entry partner): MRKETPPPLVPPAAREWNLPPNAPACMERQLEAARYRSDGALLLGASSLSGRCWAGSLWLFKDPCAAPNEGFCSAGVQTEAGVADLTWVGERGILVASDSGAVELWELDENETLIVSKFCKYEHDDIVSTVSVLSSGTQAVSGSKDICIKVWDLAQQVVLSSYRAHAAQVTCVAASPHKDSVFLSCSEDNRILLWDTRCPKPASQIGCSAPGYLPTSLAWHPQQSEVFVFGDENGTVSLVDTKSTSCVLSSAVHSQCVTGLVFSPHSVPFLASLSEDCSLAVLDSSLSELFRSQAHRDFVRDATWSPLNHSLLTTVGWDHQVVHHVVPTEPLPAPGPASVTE
- Experiment Description: PRMT5 biochemical IC50 assay with no cofactor
- Assay Conditions: PRMT5, no cofactor; read-out: No Cofactor/rel IC50
pIC50: −log10 of the molar value.
// values below are reported pIC50
Endpoint: pIC50

                                    compound  endpoint     obs_value
 0  Cc1cc(NC(=O)C(=O)N2C[C@H](C)CC[C@H]2c2ccc(F)c(F)c2)cnc1N (single isomer, unassigned)     pIC50        > 7.30
 1  Cc1cccc([C@@H]2CC[C@@H](C)CN2C(=O)C(=O)Nc2cncc(C(N)=O)c2)c1 (single isomer, unassigned)     pIC50        < 6.30
 2  C[C@@H]1CC[C@@H](c2ccnc(C(F)(F)F)c2)N(C(=O)C(=O)Nc2cncc(C(N)=O)c2)C1 (racemic)     pIC50  6.30 to 7.30
 3  Cc1cc(NC(=O)C(=O)N2C[C@@H](C)CC[C@@H]2c2ccc3[nH]nc(N)c3c2)cnc1C (single isomer, unassigned)     pIC50        < 6.30
 4  COc1ncc(NC(=O)C(=O)N2C[C@@H](C)CC[C@@H]2c2ccc(-c3cncs3)cc2)cc1C(N)=O (single isomer, unassigned)     pIC50        < 6.30
 5  C[C@@H]1CCC[C@H](c2ccccc2)N1C(=O)C(=O)Nc1cncc(C(N)=O)c1 (single isomer, unassigned)     pIC50        < 6.30
 6  Cc1cc(NC(=O)C(=O)N2C[C@H](C)CC[C@H]2c2cccc(Br)c2)cnc1N (racemic)     pIC50  6.30 to 7.30
 7  Cc1cc(NC(=O)C(=O)N2C[C@H](C)CC[C@H]2c2ccc3sc(N)nc3c2)cnc1C (racemic)     pIC50  6.30 to 7.30
 8  Cc1cc([C@@H]2CC[C@@H](C)CN2C(=O)C(=O)Nc2cncc(C(N)=O)c2)ccc1O (single isomer, unassigned)     pIC50        > 7.30
 9  C[C@@H]1CC[C@@H](c2ccc3sccc3c2)N(C(=O)C(=O)Nc2cncc(C(N)=O)c2)C1 (racemic) [Compound 409]     pIC50  6.30 to 7.30
10  C[C@H]1CC[C@H](c2ccc(F)cc2)N(C(=O)C(=O)Nc2cnc(OC(F)(F)F)c(C(N)=O)c2)C1     pIC50  6.30 to 7.30
11  COc1ncc(NC(=O)C(=O)N2C[C@@H](C)CC[C@@H]2c2cncs2)cc1C(N)=O (single isomer, unassigned)     pIC50        > 7.30
12  CCc1cc(NC(=O)C(=O)N2C[C@H](C)CC[C@H]2c2ccc3sc(CCN(C)C)nc3c2)cnc1N (single isomer, unassigned)     pIC50        < 6.30

====

// values below are reported IC50
- Test system: HAP1 MTAP-deleted cell line
- Experiment Description: SDMA in-cell western assay, HAP1 MTAP-deleted
- Type: cell-based
- Assay Conditions: Homo sapiens, HAP1, SDMA in-cell western, HAP1 MTAP-deleted; read-out: HAP1 MTAP deleted IC50
Endpoint: IC50

>>> print(df.to_string())
                                   molecule       obs_value
0  Cc1cc(NC(=O)C(=O)N2C[C@@H](C)CC[C@@H]2c2ccc3sc(-c4nccn4C)nc3c2)cnc1N [Compound 1186]        < 100 nM
1  CCc1ncc(NC(=O)C(=O)N2C[C@@H](C)CC[C@@H]2c2ccccc2)cc1C(N)=O (racemic) [Compound 747]       > 1000 nM
2  COc1ncc(NC(=O)C(=O)N2C[C@H](C)CC[C@H]2c2ccc3sc(C)nc3c2)cc1C(N)=O (single isomer, unassigned) [Compound 808]       > 1000 nM
3  COc1ncc(NC(=O)C(=O)N2C[C@H](C)CC[C@H]2c2ccc(C)nc2)cc1C(N)=O (single isomer, unassigned) [Compound 754]        < 100 nM
4  CC(=O)N[C@H]1CC[C@@H]([C@@H]2CC[C@@H](C)CN2C(=O)C(=O)Nc2cnc(N)c(C)c2)CC1 (single isomer, unassigned) [Compound 281]  100 to 1000 nM
5  COc1ccc([C@@H]2CC[C@@H](C)CN2C(=O)C(=O)Nc2cncc(C(N)=O)c2)cc1 (racemic) [Compound 228]  100 to 1000 nM

====

- Measured On: PRMT5 (Homo sapiens)
- Construct: purchased Viva (custom protein)
- Experiment Description: PRMT5 biochemical IC50 assay with SAM as cofactor
- Assay Conditions: PRMT5, SAM as cofactor; read-out: SAM IC50
// values below are reported IC50
Endpoint: IC50

                                   compound  endpoint     obs_value
0  CNc1cccc([C@H]2CC[C@H](C)CN2C(=O)C(=O)Nc2cncc(C(N)=O)c2)c1 (single isomer, unassigned) [Compound 321]      IC50      > 500 nM
1  CCc1cc(NC(=O)C(=O)N2C[C@@H](C)CC[C@@H]2c2ccc3sc([C@H]4COCCN4C)nc3c2)cnc1N [Compound 1245]      IC50  50 to 500 nM
2  CNc1cccc([C@H]2CCCCN2C(=O)C(=O)Nc2cnc(N)c(C)c2)c1 (single isomer, unassigned) [Compound 356]      IC50  50 to 500 nM

====

// values below are reported IC50
- Test system: HAP1 MTAP-deleted cell line
- Experiment Description: SDMA in-cell western assay, HAP1 MTAP-deleted
- Type: cell-based
- Assay Conditions: Homo sapiens, HAP1, SDMA in-cell western, HAP1 MTAP-deleted; read-out: HAP1 MTAP deleted IC50
Endpoint: IC50

>>> df
                                    compound  endpoint    obs_value
 0  C[C@@H]1CC[C@@H](c2cc(F)cc(Cl)c2)N(C(=O)C(=O)Nc2cncc(C(N)=O)c2)C1 (single isomer, unassigned)      IC50       > 1 µM
 1  CCc1cc(NC(=O)C(=O)N2C[C@@H](C)CC[C@@H]2c2ccc3cn(C4CCN(C)CC4)nc3c2)cnc1N (racemic)      IC50     < 0.1 µM
 2  Cc1cc(NC(=O)C(=O)N2C[C@H](C)CC[C@H]2c2cccc(N(C)C)c2)cnc1N (single isomer, unassigned)      IC50     < 0.1 µM
 3  C[C@@H]1CC[C@@H](c2ccc(OC(F)F)cc2)N(C(=O)C(=O)Nc2cncc(C(N)=O)c2)C1 (racemic)      IC50  0.1 to 1 µM
 4  CCc1cc(NC(=O)C(=O)N2C[C@@H](C)CC[C@@H]2c2ccc3[nH]c(=O)ccc3c2)cnc1N (single isomer, unassigned)      IC50     < 0.1 µM
 5  COc1ncc(NC(=O)C(=O)N2C[C@@H](C)CC[C@@H]2c2ccc3[nH]ncc3c2)cc1C(N)=O (single isomer, unassigned)      IC50     < 0.1 µM
 6  C[C@@H]1CN(C(=O)C(=O)Nc2cncc(C(N)=O)c2)[C@@H](c2ccccc2)C[C@@H]1O (racemic)      IC50  0.1 to 1 µM
 7  C[C@@H]1CC[C@@H](c2cc(F)c(F)c(F)c2)N(C(=O)C(=O)Nc2cncc(C(N)=O)c2)C1 (single isomer, unassigned)      IC50       > 1 µM
 8  Cc1cc(NC(=O)C(=O)N2C[C@H](C)CC[C@H]2[C@H]2CC[C@@H](O)CC2)cnc1N (single isomer, unassigned)      IC50  0.1 to 1 µM
 9  CC(=O)Nc1ccc([C@H]2CC[C@H](C)CN2C(=O)C(=O)Nc2cnc(N)c(C)c2)cc1 (single isomer, unassigned)      IC50       > 1 µM
10  Cc1cc(NC(=O)C(=O)N2C[C@H](C)CC[C@H]2c2ccc3ncsc3c2)cnc1N (racemic)      IC50     < 0.1 µM
11  CCc1cc(NC(=O)C(=O)N2C[C@@H](C)CC[C@@H]2c2cc3cn[nH]c3s2)cnc1N (single isomer, unassigned)      IC50     < 0.1 µM

The origin of these recorded values is patent US11999727B2.
